conditions: pampa; 60.0 min; 50.0 µM
quantity kind: Papp

1. CCOc1ccc2ccccc2c1C(=O)N[C@@H]1C(=O)N2[C@@H]1SC(C)(C)[C@@H]2C(=O)O    < 1 ×10⁻⁶ cm/s
2. COc1cc(Cc2cnc(N)nc2N)cc(OC)c1OC    14 ×10⁻⁶ cm/s
3. Cn1c2cc(C=O)sc2c2cnn(Cc3ccccc3F)c(=O)c21    270 ×10⁻⁶ cm/s
4. N=c1c2c(-c3ccccc3)cn(Cc3ccccc3)c2ncn1[C@H](CO)Cc1ccccc1    22 ×10⁻⁶ cm/s
5. CCCN[C@H]1CCc2nc(N)sc2C1    4 ×10⁻⁶ cm/s
6. CCCCC/C=C/C(=O)CCc1ccc(O)c(OC)c1    187 ×10⁻⁶ cm/s
7. CC(Cc1ccc2c(c1)OCO2)NCC(O)c1ccc(O)c(O)c1 (stereo unspecified)    6 ×10⁻⁶ cm/s
8. COC(Cn1cnc2c(c(-c3ccccc3)c(-c3ccccc3)n2CCc2ccccc2)c1=N)OC    236 ×10⁻⁶ cm/s
9. Cn1nnnc1Sc1ncnc2scc(-c3ccc[nH]3)c12    126 ×10⁻⁶ cm/s
10. O=C(O)c1cc2ccccc2c(Cc2c(O)c(C(=O)O)cc3ccccc23)c1O    3 ×10⁻⁶ cm/s
11. CCN1CCN(C(=O)c2ccc3c(c2)N(Cc2cc(C)ccc2C)C(=O)c2ccccc2S3(=O)=O)CC1    63 ×10⁻⁶ cm/s

Cited source for all entries: PubChem BioAssay AID1845228
